src = patent US20250154202A1

Target: T1, biotinylated NbALFA (NanoTag) (biotinylated (site not stated))
T1 construct: Bought from NanoTag and captured on the SPR chip through biotin; also called NbALFA-nanobody; Nanobody
T1 sequence (VHH, as listed by the source): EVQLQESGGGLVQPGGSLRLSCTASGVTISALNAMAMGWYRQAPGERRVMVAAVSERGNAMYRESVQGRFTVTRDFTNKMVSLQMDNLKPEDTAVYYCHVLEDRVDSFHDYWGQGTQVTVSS
Test: SPR, Biacore T200, biotinylated NbALFA captured on Biotin CAPture chip, peptide as analyte, multi-cycle kinetics, 1:1 model, 25 C
Bridge positions count the residues as written; N and C are the ends. Square brackets hold non-standard residues; d marks the D form. Ends that are not written are not given here.
recorded.metric: log10 of Kd (log10 of the value in nM)
On a log10 scale: recorded Kd, unit nM.

Record excerpt, results attached:
Ac-PSRLEKELRERLTE-NH2 (lactam 6-10; SMILES CC(=O)N1CCC[C@H]1C(=O)N[C@@H](CO)C(=O)N[C@@H](CCCNC(=N)N)C(=O)N[C@@H](CC(C)C)C(=O)N[C@@H](CCC(=O)O)C(=O)N[C@H]1CCCCNC(=O)CC[C@@H](C(=O)N[C@@H](CCCNC(=N)N)C(=O)N[C@@H](CC(C)C)C(=O)N[C@H](C(=O)N[C@@H](CCC(=O)O)C(N)=O)[C@@H](C)O)NC(=O)[C@H](CCCNC(=N)N)NC(=O)[C@H](CC(C)C)NC(=O)[C@H](CCC(=O)O)NC1=O, Cyclic ALFA tag; also called SD15805) [Ac-Pro-Ser-Arg-Leu-Glu-(cyclo6)Lys-Glu-Leu-Arg-(cyclo10)Glu-Arg-Leu-Thr-Glu-NH2]    -0.99
Ac-SRLEDELRKRLTE-NH2 (lactam 5-9; SMILES CC(=O)N[C@@H](CO)C(=O)N[C@@H](CCCNC(=N)N)C(=O)N[C@@H](CC(C)C)C(=O)N[C@@H](CCC(=O)O)C(=O)N[C@H]1CC(=O)NCCCC[C@@H](C(=O)N[C@@H](CCCNC(=N)N)C(=O)N[C@@H](CC(C)C)C(=O)N[C@H](C(=O)N[C@@H](CCC(=O)O)C(N)=O)[C@@H](C)O)NC(=O)[C@H](CCCNC(=N)N)NC(=O)[C@H](CC(C)C)NC(=O)[C@H](CCC(=O)O)NC1=O, Cyclic ALFA tag; also called SD15196) [Ac-Ser-Arg-Leu-Glu-(cyclo5)Asp-Glu-Leu-Arg-(cyclo9)Lys-Arg-Leu-Thr-Glu-NH2]    -0.36
Ac-SRLEEELRRRLTE-NH2 (Linear ALFA tag; also called SD15197) [Ac-Ser-Arg-Leu-Glu-Glu-Glu-Leu-Arg-Arg-Arg-Leu-Thr-Glu-NH2]    -1.93

Enquiry: Which log10 of Kd value is on record for Ac-PSRLEEELR[dK]RLTE-NH2 (lactam 6-10; SMILES CC(=O)N1CCC[C@H]1C(=O)N[C@@H](CO)C(=O)N[C@@H](CCCNC(=N)N)C(=O)N[C@@H](CC(C)C)C(=O)N[C@@H](CCC(=O)O)C(=O)N[C@H]1CCC(=O)NCCCC[C@H](C(=O)N[C@@H](CCCNC(=N)N)C(=O)N[C@@H](CC(C)C)C(=O)N[C@H](C(=O)N[C@@H](CCC(=O)O)C(N)=O)[C@@H](C)O)NC(=O)[C@H](CCCNC(=N)N)NC(=O)[C@H](CC(C)C)NC(=O)[C@H](CCC(=O)O)NC1=O, Cyclic ALFA tag; also called SD15808) [Ac-Pro-Ser-Arg-Leu-Glu-(cyclo6)Glu-Glu-Leu-Arg-(cyclo10)dLys-Arg-Leu-Thr-Glu-NH2] ?
Return: -1.42

Enquiry: Try Ac-PSRLEEELRKRLTE-NH2 (lactam 6-10; SMILES CC(=O)N1CCC[C@H]1C(=O)N[C@@H](CO)C(=O)N[C@@H](CCCNC(=N)N)C(=O)N[C@@H](CC(C)C)C(=O)N[C@@H](CCC(=O)O)C(=O)N[C@H]1CCC(=O)NCCCC[C@@H](C(=O)N[C@@H](CCCNC(=N)N)C(=O)N[C@@H](CC(C)C)C(=O)N[C@H](C(=O)N[C@@H](CCC(=O)O)C(N)=O)[C@@H](C)O)NC(=O)[C@H](CCCNC(=N)N)NC(=O)[C@H](CC(C)C)NC(=O)[C@H](CCC(=O)O)NC1=O, Cyclic ALFA tag; also called SD15341) [Ac-Pro-Ser-Arg-Leu-Glu-(cyclo6)Glu-Glu-Leu-Arg-(cyclo10)Lys-Arg-Leu-Thr-Glu-NH2] next.
Return: -1.71

Enquiry: And what about the binder SRLEEELRKRLTE (lactam 5-9; not fully specified (N-terminus, C-terminus), also called SD15194) [Ac-Ser-Arg-Leu-Glu-(cyclo5)Glu-Glu-Leu-Arg-(cyclo9)Lys-Arg-Leu-Thr-Glu-NH2] ?
Return: -1.42
